- measurement.protocol: Half life in rat liver microsomes
- condition.set: liver microsomes
# maps each entry to its half-life

Query :: Using the record for CC(C)n1c(=O)c(C(=O)N[C@H]2C[C@H]3CC[C@@H](C2)N3CC(O)CN(C)S(C)(=O)=O)cc2ccccc21 (mixture of isomers) , report its half-life.
Result :: > 1.5 h

----------
- measurement.protocol: Permeability across human Caco2 cells
- condition.set: Caco-2
Quick rule for you: Papp at 6 ×10⁻⁶ cm/s or higher means rule met, lower means rule not met.

Query :: Answer whether Papp of CC(C)n1c(=O)c(C(=O)N[C@H]2C[C@H]3CC[C@@H](C2)N3CC(O)CN(C)C(N)=O)cc2ccccc21 (mixture of isomers) is greater than or equal to 6 ×10⁻⁶ cm/s.
Result :: rule not met

Query :: Check if Papp >= 6 ×10⁻⁶ cm/s (inclusive). Item: COC(=O)NCC(O)CN1[C@@H]2CC[C@H]1C[C@@H](NC(=O)c1cc3ccccc3n(C(C)C)c1=O)C2 (mixture of isomers)
Result :: rule met

Query :: Does Papp meet or surpass 6 ×10⁻⁶ cm/s for CC(C)n1c(=O)c(C(=O)N[C@H]2C[C@H]3CC[C@@H](C2)N3CC(O)CN(C)C(=O)N(C)C)cc2ccccc21 (mixture of isomers) ?
Result :: rule met

Query :: Could you verify whether the entry CC(C)n1c(=O)c(C(=O)N[C@H]2C[C@H]3CC[C@@H](C2)N3CC(O)CNC(=O)N(C)C)cc2ccccc21 (mixture of isomers) shows Papp of no less than 6 ×10⁻⁶ cm/s?
Result :: rule not met

Query :: Dear colleague, could you confirm whether COC(=O)N(C)CC(O)CN1[C@@H]2CC[C@H]1C[C@@H](NC(=O)c1cc3ccccc3n(C(C)C)c1=O)C2 (mixture of isomers) has Papp at or above 6 ×10⁻⁶ cm/s?
Result :: rule met

Query :: Form field: Papp at least 6 ×10⁻⁶ cm/s? Entry: CC(=O)N(C)CC(O)CN1[C@@H]2CC[C@H]1C[C@@H](NC(=O)c1cc3ccccc3n(C(C)C)c1=O)C2 (mixture of isomers)
Result :: rule met

----------
- measurement.protocol: Half life in rat liver microsomes
- condition.set: microsomes
Below is a list of entries, each paired with its recorded half-life value.

Solved entries (count: 2):
{"compound": "COC(=O)NCC(O)CN1[C@@H]2CC[C@H]1C[C@@H](NC(=O)c1cc3ccccc3n(C(C)C)c1=O)C2 (mixture of isomers)", "parameter.measured": "half-life", "value": "> 1.5 h"}
{"compound": "CC(C)n1c(=O)c(C(=O)N[C@H]2C[C@H]3CC[C@@H](C2)N3C[C@@H](O)CN2CCN(S(C)(=O)=O)CC2)cc2ccccc21", "parameter.measured": "half-life", "value": "> 1.5 h"}

Query compound follows.
Query :: Give its half-life value. Item: CC(C)n1c(=O)c(C(=O)N[C@H]2C[C@H]3CC[C@@H](C2)N3CC(O)CN(C)C(N)=O)cc2ccccc21 (mixture of isomers)
Result :: > 1.5 h

----------
- test.system: 5-hydroxytryptamine receptor 4 (Cavia porcellus, UniProt O70528)
- Sequence (O70528 whole entry): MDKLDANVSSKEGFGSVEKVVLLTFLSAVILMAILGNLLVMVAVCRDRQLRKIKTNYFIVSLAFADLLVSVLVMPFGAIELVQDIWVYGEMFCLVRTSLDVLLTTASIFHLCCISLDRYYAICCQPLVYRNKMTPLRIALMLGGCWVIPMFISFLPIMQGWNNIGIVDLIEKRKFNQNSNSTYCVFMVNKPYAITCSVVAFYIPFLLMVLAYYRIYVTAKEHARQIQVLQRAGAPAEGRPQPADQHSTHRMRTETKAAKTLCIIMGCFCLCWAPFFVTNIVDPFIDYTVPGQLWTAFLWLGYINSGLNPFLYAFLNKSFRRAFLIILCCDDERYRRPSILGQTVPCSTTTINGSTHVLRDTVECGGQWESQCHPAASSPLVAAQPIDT
- measurement.protocol: Agonist activity at 5HT4 receptor in guinea pig colonic longitudinal muscle/myenteric plexus assessed as contraction
parameter.measured: EC50 (nM)
Reply numerically in nM, unit not repeated.

Query :: Field: EC50 (5-hydroxytryptamine receptor 4 (Cavia porcellus, UniProt O70528)). Entry: CC(C)n1c(=O)c(C(=O)N[C@H]2C[C@H]3CC[C@@H](C2)N3C[C@@H](O)CN(C)S(C)(=O)=O)cc2ccccc21
Result :: 12.6
